Reported values: pKi for adrenal membrane angiotensin II receptor (Oryctolagus cuniculus, UniProt P34976), one per item.
Counter-ions that a name gives are not always drawn.
One number for each entry, as −log10 of the molar value.

// known answers, use as guide
>>> measured("CCc1nc2c(C)cc(C)nc2n1Cc1ccc(-c2ccccc2-c2c(OCOC(=O)C(C)(C)C)c(=O)c2=O)cc1 [Example 13]")
7.72
>>> measured("CCCc1nc2c(C)cc(C)nc2n1Cc1ccc(-c2ccccc2-c2c(O)c(=O)c2=O)cc1 [Example 9]")
8.43
>>> measured("CCCCc1nc(Cl)c(C(=O)O)n1Cc1ccc(-c2ccccc2-c2c(O)c(=O)c2=O)cc1 [Example 29, hydrochloride]")
7.86
>>> measured("CCCCC1=NC2(CCCC2)C(=O)N1Cc1ccc(-c2ccccc2-c2c(O)c(=O)c2=O)cc1 [Example 22]")
8.43
>>> measured("CCCCN(Cc1ccc(-c2ccccc2-c2c(O)c(=O)c2=O)cc1)c1ncncc1C(=O)O [Example 20, hydrochloride]")
7.09
>>> measured("CCc1nc2c(C)cc(C)nc2n1Cc1ccc(-c2ccccc2-c2c(O)c(=O)c2=O)cc1 (single isomer, unassigned) [Example 5]")
8.75

I would be grateful if you could provide pKi for each of the following entries.
1. CCc1nc2c(C)c(Cl)c(C)nc2n1Cc1ccc(-c2ccccc2-c2c(O)c(=O)c2=O)cc1 [Example 12, hydrochloride]
2. CCCc1nc(CC)c(C=O)n1Cc1ccc(-c2ccccc2-c2c(O)c(=O)c2=O)cc1 [Example 15]

OUTPUT:
[7.88, 7.87]

Data provenance is patent US5627191A.
